The measured values listed here are drawn from paper PMC10786891.

# assay-system: T1, EsCas13d, nuclease-dead (Eubacterium siraeum, UniProt B0MS50, R295A;H300A;R849A;H854A)
# T1 sequence: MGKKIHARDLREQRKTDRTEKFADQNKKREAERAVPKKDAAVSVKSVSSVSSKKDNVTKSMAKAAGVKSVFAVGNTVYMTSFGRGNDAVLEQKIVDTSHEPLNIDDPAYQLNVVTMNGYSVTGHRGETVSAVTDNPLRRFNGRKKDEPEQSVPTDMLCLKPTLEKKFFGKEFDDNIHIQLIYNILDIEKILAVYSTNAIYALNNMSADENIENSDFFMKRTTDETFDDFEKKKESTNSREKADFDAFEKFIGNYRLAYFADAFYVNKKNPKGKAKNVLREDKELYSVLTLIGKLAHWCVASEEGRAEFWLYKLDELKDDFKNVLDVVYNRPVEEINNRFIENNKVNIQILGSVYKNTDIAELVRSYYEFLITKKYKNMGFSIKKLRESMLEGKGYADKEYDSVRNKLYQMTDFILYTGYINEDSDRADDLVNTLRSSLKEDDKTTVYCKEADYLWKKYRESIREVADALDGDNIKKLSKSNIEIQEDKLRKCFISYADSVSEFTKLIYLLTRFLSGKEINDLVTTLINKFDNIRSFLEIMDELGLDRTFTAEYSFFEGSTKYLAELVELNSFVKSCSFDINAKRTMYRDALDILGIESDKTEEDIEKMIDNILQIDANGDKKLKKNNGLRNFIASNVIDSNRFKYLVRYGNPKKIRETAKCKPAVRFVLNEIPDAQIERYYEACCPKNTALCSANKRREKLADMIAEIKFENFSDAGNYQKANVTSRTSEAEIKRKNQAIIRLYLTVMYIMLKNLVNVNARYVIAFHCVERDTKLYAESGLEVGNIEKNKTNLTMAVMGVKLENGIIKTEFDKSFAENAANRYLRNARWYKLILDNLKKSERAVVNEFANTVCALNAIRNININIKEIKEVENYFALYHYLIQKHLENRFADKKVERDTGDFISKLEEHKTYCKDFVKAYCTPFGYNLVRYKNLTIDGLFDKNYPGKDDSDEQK
# assay-name: crRNA (strand 1, pre-loaded); Mg2+; 40 mM Tris-HCl pH 7.5, 150 mM NaCl, 6 mM MgCl2, 1 mM DTT, 0.1% Tween-20, 0.2 mg/ml BSA; 25 C; 10 min per concentration, then washed
# condition-parameters: tags: His6-TwinStrep-SUMO cleaved; N-terminal SNAP kept (SNAP-Surface 488); label: 3' end held by stalled T7 RNA polymerase
observable: Kd (nM)
Your answer is read as nM, so omit the unit and give the number.

Query: Recall and state the measured Kd for target 2 MT 5'PFS ACU 3'PFS UCU (mixed) RNA 1: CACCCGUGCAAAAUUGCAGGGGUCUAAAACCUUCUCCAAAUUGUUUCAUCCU RNA 2: GGGAAUGGAUCCACAUCUACGAAUUCACUAGGAUGAAACAAUUUGGAGAAGUCUAGAUCGGAAGAGCACACGU .
Reply: 8.4
